Values compiled from patent US10399968B2.

# Assay procedure: Oral bioavailability (BA) in rats
# Format: in vivo
# Reported conditions: male, SD, blood; Rat, 2 mg/kg oral vs jugular vein

Compound	Units label	bioavailability
CCc1[nH]c(C(=O)N[C@@H]2CCN(c3nnc([C@H](C)O)s3)C[C@@H]2OC)nc1Cl (single isomer, unassigned)	%	60
CCc1[nH]c(C(=O)N[C@@H]2CCN(c3nnc(C(C)(C)O)s3)C[C@@H]2OC)nc1Cl	%	98
CCc1[nH]c(C(=O)N[C@@H]2CCN(c3nnc(C(C)O)s3)C[C@@H]2OC)nc1Cl (mixture of isomers)	%	51

---

# maps each entry to its pIC50
# Assay system: Clostridium difficile DNA gyrase (Clostridioides difficile, UniProt Q18C89)
# Sequence (Q18C90 entry or part of it): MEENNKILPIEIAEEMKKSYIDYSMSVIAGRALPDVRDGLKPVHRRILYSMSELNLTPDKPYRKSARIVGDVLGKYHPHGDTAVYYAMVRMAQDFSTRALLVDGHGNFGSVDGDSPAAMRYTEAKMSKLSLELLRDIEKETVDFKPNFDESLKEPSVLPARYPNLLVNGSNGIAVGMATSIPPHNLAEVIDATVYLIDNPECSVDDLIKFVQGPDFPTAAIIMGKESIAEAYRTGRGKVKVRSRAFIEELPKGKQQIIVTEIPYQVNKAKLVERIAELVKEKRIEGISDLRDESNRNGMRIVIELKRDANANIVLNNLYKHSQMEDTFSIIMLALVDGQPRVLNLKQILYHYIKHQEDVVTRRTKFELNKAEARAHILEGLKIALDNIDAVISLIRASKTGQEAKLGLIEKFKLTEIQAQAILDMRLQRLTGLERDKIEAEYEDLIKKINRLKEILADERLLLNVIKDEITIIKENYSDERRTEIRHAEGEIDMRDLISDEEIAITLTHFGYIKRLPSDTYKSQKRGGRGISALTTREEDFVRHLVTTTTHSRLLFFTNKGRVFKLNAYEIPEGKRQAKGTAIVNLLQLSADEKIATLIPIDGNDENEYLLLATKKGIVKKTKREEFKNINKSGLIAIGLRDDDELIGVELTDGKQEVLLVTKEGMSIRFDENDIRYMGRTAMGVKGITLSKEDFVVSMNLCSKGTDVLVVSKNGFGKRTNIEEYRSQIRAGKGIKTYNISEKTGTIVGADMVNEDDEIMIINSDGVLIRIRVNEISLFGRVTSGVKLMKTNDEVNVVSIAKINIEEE
# Sequence (Q18C89 entry or part of it): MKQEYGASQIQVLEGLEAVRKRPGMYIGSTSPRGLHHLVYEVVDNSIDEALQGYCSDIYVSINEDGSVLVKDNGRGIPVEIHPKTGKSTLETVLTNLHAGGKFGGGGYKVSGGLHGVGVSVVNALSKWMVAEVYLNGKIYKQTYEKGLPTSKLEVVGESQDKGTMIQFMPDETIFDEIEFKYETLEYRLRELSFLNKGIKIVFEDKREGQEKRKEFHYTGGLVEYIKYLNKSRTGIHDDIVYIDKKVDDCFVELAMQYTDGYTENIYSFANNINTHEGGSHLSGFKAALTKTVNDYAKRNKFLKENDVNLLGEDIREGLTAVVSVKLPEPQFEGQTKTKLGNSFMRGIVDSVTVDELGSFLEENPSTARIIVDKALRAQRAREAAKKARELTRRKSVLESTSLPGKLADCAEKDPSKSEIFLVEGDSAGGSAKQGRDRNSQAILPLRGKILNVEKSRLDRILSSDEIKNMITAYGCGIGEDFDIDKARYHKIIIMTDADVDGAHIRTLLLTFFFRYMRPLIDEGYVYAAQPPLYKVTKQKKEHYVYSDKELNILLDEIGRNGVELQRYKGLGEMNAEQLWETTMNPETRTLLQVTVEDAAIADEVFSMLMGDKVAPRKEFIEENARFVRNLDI
# Assay procedure: DNA supercoiling inhibition assay
# Assay type: biochemical
# Reported conditions: supercoiling of relaxed pBR322 DNA, 60 minutes at 37° C.
pIC50: −log10 of the molar value.
Measurement label: pIC50

Molecule	Measurement label	Reported measurement
CCc1[nH]c(C(=O)N[C@@H]2CCN(c3nnc([C@@H](C)O)s3)C[C@@H]2OC)nc1Cl (single isomer, unassigned)	pIC50	7.84
CCO[C@H]1CN(c2nnc(C(C)O)s2)CC[C@H]1NC(=O)c1nc(Cl)c(CC)[nH]1 (stereo partly drawn)	pIC50	8.06
CCc1[nH]c(C(=O)N[C@@H]2CCN(c3nnc([C@H](C)O)s3)C[C@@H]2OC)nc1Cl (single isomer, unassigned)	pIC50	7.66
CCc1[nH]c(C(=O)N[C@@H]2CCN(c3nnc(C(C)(O)CO)s3)C[C@@H]2OC)nc1Cl (stereo in doubt) [Compound No. 11]	pIC50	7.57
CCc1[nH]c(C(=O)N[C@@H]2CCN(c3nnc(C(C)(O)CO)s3)C[C@@H]2OC)nc1Cl (stereo in doubt) [Compound No. 10]	pIC50	7.22
CCc1[nH]c(C(=O)N[C@@H]2CCN(c3nnc(C(C)(C)O)s3)C[C@@H]2OC)nc1Cl	pIC50	7.33
